System: SF-539
EXPERIMENT_SUMMARY: NCI tumour cell line growth inhibition, 48 h
Activity calls are given as the source filed them. Rule as the data show it: active = GI50 up to about 1.1 µM and inactive = higher.
Classes to choose from: YES for active, NO for inactive

// known answers, use as guide
[
  {
    "COMPOUND": "C[C@H]1CC[C@@]2(NC1)O[C@H]1C[C@H]3[C@@H]4CC[C@H]5C[C@@H](O)CC[C@]5(C)[C@H]4CC[C@]3(C)[C@H]1[C@@H]2C",
    "ASSAYED_TARGET": "SF-539",
    "QUALITATIVE_LABEL": "NO"
  },
  {
    "COMPOUND": "C[C@@H](CC(O)C(O)C(C)(C)O)C1CCC23CC12CCC1[C@@]2(C)CCC(=O)C(C)(C)C2CC(OC2OC(CO)C(O)C(O)C2O)[C@]13C (some centres not stated)",
    "ASSAYED_TARGET": "SF-539",
    "QUALITATIVE_LABEL": "NO"
  }
]

Name the outcome recorded for Cc1cc2c(=O)cc(-c3ccc(Cl)cc3Cl)oc2c(C(=O)O)c1C in the assay.
NO

What outcome does the record of this test show for CCN(CC)C(=O)Cc1[nH][nH]c(=O)c1C(=O)N(CC)CC ?
NO

# outcome recorded in this test, key = Cc1ccc2nc(/C=N/c3ccccc3Cl)cc(C)c2c1
NO

Per the assay record, what outcome was assigned to Cn1c(=O)c2nc(CS(=O)(=O)Cc3nc4c(=O)n(C)c(=O)n(C)c4[nH]3)[nH]c2n(C)c1=O ?
NO

Could you check what this test reported for O=C1N/C(=N\N=C\c2ccccc2)C(c2ccccc2)O1 (configuration not stated) ?
NO

What is the recorded call for this compound in the test? Cc1ccc([N+](=O)[O-])cc1S(=O)(=O)Nc1ccc(C2=NNC(c3ccccc3O)C2)cc1 (configuration not stated)
NO

State the result this test recorded for C=Cc1c(C)c2cc3nc(c4c5[nH]c(cc6nc(cc1[nH]2)C(C)=C6CC)c(C)c5C(=O)C4C(=O)OC)C(CCC(=O)OC)C3C (configuration not stated) .
NO
